Biological target: P1-type nucleoside transporter
Assay: [3H]-inosine uptake in bloodstream forms
Conditions: read-out: Ki for inhibition of inosine uptake; monophasic, n = 4
ENDPOINT_NAME: Ki
Your answer should be a number followed by the unit of measure.

Task item: Using the record for Cc1cn([C@H]2C[C@H](O)[C@@H](CO)O2)c(=O)[nH]c1=O , report its Ki.
Reply: 214 µM

* * *

Record form. Attribute: log10 of EC50. Fill in for each entry.
System: T. b. brucei bloodstream forms strain 427 WT
Assay: Alamar blue drug sensitivity assay, wild-type
Assay type: cell-based, Trypanosoma brucei brucei
Conditions: Trypanosoma brucei, read-out: EC50, WT, Mean, Alamar blue assay; wild-type sensitive control strain
Hello, just confirming the data are log10 of EC50 with units of µM.

* O=C(O)c1[nH]c(=O)[nH]c(=O)c1F | 1.15
* O=c1cn[nH]c(=O)[nH]1 | 2.98
* O=c1[nH]cc(F)c(=O)[nH]1 | 1.56
* Nc1nc(=O)n([C@H]2C[C@H](O)[C@@H](CO)O2)cc1F | 1.69
* O=c1[nH]c(=O)n([C@H]2C[C@H](O)[C@@H](CO)O2)cc1Cl | 1.73
* N=C(N)c1ccc(OCCCCCOc2ccc(C(=N)N)cc2)cc1 | -2.11

// below: log10 of EC50 requested for another molecule
Task item: Using the record for O=c1[nH]c(=O)n([C@H]2C[C@H](O)[C@@H](CO)O2)cc1F , report its log10 of EC50.
Reply: 0.72
